# testMethodNotes: qHTS assay for measurement of the activity of small molecule inhibitors on Zika virus induced Caspase-3 activity in human iPSC derived neural progenitor cells (hNPCs) (AID 1224857); further: nearly all actives have a fitted effect of over 65% in size
# conditionLabel: hNPCs ZIKV-induced caspase-3/7, Caspase-Glo luminescence, 6 h; series mostly up to 45.7 µM
Results filed as inconclusive are left out. Calls of active or inactive are those of the source. The call rests on the fitted dose curve; in most records, active means well fitted inhibition curve with a large enough effect; inconclusive means small, poorly fitted or top-dose-only effect; inactive means no such curve, though single readings can be large or run the other way.
endpointName: Potency

Solved entries (count: 5):
{"compound": "COc1cc(N2CCC(N3CCN(C)CC3)CC2)ccc1Nc1ncnc(Nc2ccccc2S(=O)(=O)C(C)C)n1", "endpointName": "Potency", "recordedResult": "inactive"}
{"compound": "COC[C@@H](c1ccc(C(F)(F)F)cc1)N1CCN(C2(C)CCN(C(=O)c3c(C)ncnc3C)CC2)C[C@H]1C", "endpointName": "Potency", "recordedResult": "inactive"}
{"compound": "COc1ccc(-c2nc(N3CCOCC3)c3sc(CN(C)c4ncc(C(=O)NO)cn4)cc3n2)cn1", "endpointName": "Potency", "recordedResult": "inactive"}
{"compound": "Cc1c[nH]c(C=C2C(=O)Nc3ccccc32)c1CCC(=O)O", "endpointName": "Potency", "recordedResult": "inactive"}
{"compound": "CCOC(CN1C(=O)[C@](CC(=O)Nc2ccc(C)cc2)(NC(=O)Nc2ccc(C)cc2)c2ccccc21)OCC", "endpointName": "Potency", "recordedResult": "inactive"}

Please supply Potency for each of the following items, keeping them in order.
1. COc1cccc2c1CCCC2CCCN1CCN(C2CCCCC2)CC1 (stereo not given)
2. O=C(O)[C@H]1O[C@H](Oc2cc3oc(-c4ccccc4)cc(=O)c3c(O)c2O)[C@H](O)[C@@H](O)[C@H]1O
3. NC(=O)c1ccc2nc(-c3ccc(Oc4ccc(Cl)cc4)cc3)[nH]c2c1

Response:
1: inactive; 2: inactive; 3: inactive

###

# testMethodNotes: qHTS assay for measurement of the activity of small molecule inhibitors on Zika virus induced Caspase-3 activity in human astrocytoma cells (AID 1224859)
# conditionLabel: SNB-19 ZIKV-induced caspase-3/7, luminescence, 6 h; series mostly up to 45.7 µM
Calls of active or inactive are those of the source. Calls come from the whole dose curve; as a rule, active = well fitted inhibition curve with a large enough effect; inconclusive = small, poorly fitted or top-dose-only effect; inactive = no such curve, though single readings can be large or run the other way.
endpointName: outcome

Solved entries (count: 5):
{"molecule": "COc1ccc(-c2nc(N3CCOCC3)c3sc(CN(C)c4ncc(C(=O)NO)cn4)cc3n2)cn1", "outcome": "inactive"}
{"molecule": "O=C(O)CCc1nc(-c2ccccc2)c(-c2ccccc2)o1", "outcome": "inactive"}
{"molecule": "Cc1ccccc1C(C(=O)NC1CCCCC1)N(C(=O)Cn1ccnc1C)c1cccc(F)c1 (stereo not given)", "outcome": "inactive"}
{"molecule": "COCCOc1nc(-c2ccc(Cl)c(Cl)c2)n(-c2ccc(NC(=O)CCl)cc2)n1", "outcome": "inactive"}
{"molecule": "COc1cc(O)c2c(c1)C(=O)c1cc(C)cc(O)c1C2=O", "outcome": "inactive"}

Please supply outcome for each of the following items, keeping them in order.
1. COC[C@@H](c1ccc(C(F)(F)F)cc1)N1CCN(C2(C)CCN(C(=O)c3c(C)ncnc3C)CC2)C[C@H]1C
2. NC(=O)NN=Cc1ccc([N+](=O)[O-])o1
3. C[N+](C)(C)CC(=O)O

Response:
1: inactive; 2: inactive; 3: inactive

Please supply outcome for each of the following items, keeping them in order.
1. CC=CCC=CCCC(=O)[C@H]1O[C@@H]1C(N)=O
2. Cc1ccc(F)c(NC(=O)Nc2ccc(-c3cccc4[nH]nc(N)c34)cc2)c1

Response:
["inactive", "inactive"]
